Hey, just so you know, these numbers are from PubChem BioAssay AID1159580.

- protocolNotes: chemical genetic growth profiling, strain panel (AID 1159580);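 also: tested at 20 µM; growth read once vehicle control cultures reached saturation at 30 °C; 1 = growth at the plate median or of vehicle wells; lower values mean less growth of the strain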
- runConditions: S. cerevisiae deletion strains, growth OD, locus YDL108W, strain KIN28, hits give low values
About 2,000 (36%) of roughly 5,500 compounds were called active. Another 18% or so got no clear call; they are omitted. This is one part of the list.
experimentalEndpoint: normalized growth

1. O=C(Nc1cccc2ccccc12)c1ccccc1O : 0.827
2. S=C(NNc1ccccc1)Nc1cc(Cl)ccc1Cl : 0.974
3. COc1ccc(C(=O)NCc2csc3ccc(Cl)cc23)cc1OC : 0.981
4. CNC(=O)n1nc(C)c(Cc2csc3ccc(Cl)cc23)c1C : 0.993
5. S=C(Nc1cc(Cl)c(Cl)cc1Cl)Nc1ccccc1Br : 0.958

====

- protocolNotes: chemical genetic growth profiling, strain panel (AID 1159580);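 also: tested at 20 µM; growth read once vehicle control cultures reached saturation at 30 °C; 1 = growth at the plate median or of vehicle wells; lower values mean less growth of the strain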
- runConditions: S. cerevisiae deletion strains, growth OD, locus YPR141C, strain kar3
Screen size: about 5,500 compounds; about 2,000 (36%) were called active. Inconclusive results (about 18%) are left out. No stated cut-off is given here; in the data, active means normalized growth mostly below about 0.91 (no sharp cut-off); inconclusive means no clear call, values can overlap the other calls; inactive means mostly above about 0.92. The list shows a part of the results. Where a SMILES comes first, the peptide text is derived from it.
Labels: y = active, n = inactive

1. C[C@@H]1O[C@@H](O[C@H]2C[C@@H](O)[C@]3(CO)C4C(CC[C@]3(O)C2)[C@@]2(O)CC[C@H](C3=CC(=O)OC3)[C@@]2(C)C[C@H]4O)[C@H](O)[C@H](O)[C@H]1O (some centres not stated) : n
2. COC(=O)c1c(C)cc(OC(=O)c2c(C)cc(O)c(C=O)c2O)c(C)c1O : n
3. NNCCc1ccccc1 : n
4. COc1cc2c(cc1O)C(Cc1ccc(O)cc1)N(C)CC2 (configuration not stated) : n
5. Cc1cccc(Nc2ccncc2S(=O)(=O)NC(=O)NC(C)C)c1 : n
6. COc1c2ccccc2nc2occc12 : n
7. CC(CN(C)C)CN1c2ccccc2Sc2ccccc21 (configuration not stated) : n
8. CNC(=O)Oc1ccc2c(c1)[C@]1(C)CCN(C)[C@@H]1N2C : n
9. O=C(O)CCCOc1ccc(Cl)cc1Cl : n
10. CN(C(=O)CN(CCO)CC(=O)N(C)C(C)(C)Cc1ccccc1)C(C)(C)Cc1ccccc1 : n
11. CC(CN1c2ccccc2Sc2cccnc21)N(C)C (configuration not stated) : n
12. CC(=O)O[C@H]1CC[C@]2(C)C3=CC(=O)[C@@]4(C)C(C[C@@H]5OC6(OCC(C)CC6Br)[C@@H](C)[C@@H]54)C3CC[C@H]2C1 (some centres not stated) : n
13. C=C1C2CC[C@@]3(C)[C@H](c4ccoc4)OC(=O)C[C@]13O[C@H]1CC(O)C(C)(C)C(CC(=O)OC)[C@@]21C (some centres not stated) : n
14. COc1cc(C(=O)O)c2c(c1C)OC(=O)c1c(C)cc(O)c(C=O)c1O2 : n
15. NCCCCC(N)C(=O)NC(Cc1ccc(O)cc1)C(=O)NC(CCCCN)C(=O)O (stereo not drawn) (H-Lys-Tyr-Lys-OH; configuration not given here) : n
16. C[C@@H](N)[C@@H](O)c1ccccc1 : n
17. CC(CN1c2ccccc2Sc2ccccc21)N(C)C (configuration not stated) : n
18. O=C(Nc1ccccc1)c1ccccc1O : n
19. C=C1[C@H]2CC[C@@]3(C)[C@H](c4ccoc4)OC(=O)C[C@]13O[C@H]1C[C@H](O)C(C)(C)[C@H](CC(=O)OC)[C@]12C : n
20. NCC(CC(=O)O)c1ccc(Cl)cc1 (configuration not stated) : n
21. S=P(N1CC1)(N1CC1)N1CC1 : n
22. CCCCCC1C(=O)CCC1CC(=O)OC (configuration not stated) : n
23. O=c1[nH]cnc2[nH]ncc12 : n
24. CC(CN(C)C)CN1c2ccccc2CCc2ccccc21 (configuration not stated) : n
25. CCC(=O)c1ccc2c(c1)N(CC(C)N(C)C)c1ccccc1S2 (configuration not stated) : n
26. C=C1C(C2(C)C=CC(=O)C(C)(C)C2CC(=O)OC)CC[C@@]2(C)[C@H](c3ccoc3)OC(=O)C3OC132 (some centres not stated) : n
27. COc1cc([C@H]2Oc3cc([C@H]4Oc5cc(O)cc(O)c5C(=O)[C@@H]4O)ccc3O[C@@H]2CO)ccc1O : n
28. CC12CC3CC(C)(C1)CC(N)(C3)C2 : n
29. COc1cc(C)c(C(=O)Oc2cc(C)c(C(=O)O)c(O)c2C)c(OC)c1C : n
30. COc1cc2c(cc1/C=C/C(=O)c1cc(OC)c(OC)cc1OC)OCO2 : n
31. CC(=O)O[C@H]1C[C@@H](OC(C)=O)C(C)(C)C2CC(=O)[C@]3(C)C(CC[C@@]4(C)[C@H](c5ccoc5)OC(=O)[C@H]5O[C@]543)[C@]21C (some centres not stated) : n
32. CNCCCN1c2ccccc2CCc2ccccc21 : n
33. CCC(=O)Nc1ccc(Cl)c(Cl)c1 : n
34. COc1cc2c(cc1-c1cc3cc4ccoc4cc3oc1=O)OCO2 : n
35. N[C@H](Cc1cc(I)c(Oc2ccc(O)c(I)c2)c(I)c1)C(=O)O : n
36. C[C@H](N)[C@H](O)c1ccccc1 : n
37. CC1(C)C(O)CC(O)C2(C)C1CC(O)C1(C)C2CCC2(C)C(c3ccoc3)OC(=O)C3OC321 (configuration not stated) : n
38. N[C@@H](Cc1cc(I)c(Oc2cc(I)c(O)c(I)c2)c(I)c1)C(=O)O : y
39. COC(=O)CCCOc1ccc(Cl)cc1Cl : n
40. CCN(CCCc1ccccc1)CCCc1ccccc1 : n
41. CN[C@@H]1[C@H](OC2[C@H](O[C@H]3[C@H](O)[C@@H](O)[C@H](N=C(N)N)[C@@H](O)[C@@H]3N=C(N)N)O[C@@H](C)[C@]2(O)C=O)O[C@@H](CO)[C@H](O)[C@H]1O (some centres not stated) : n
42. CN(C)CCOC(=O)COc1ccc(Cl)cc1 : n

====

- protocolNotes: chemical genetic growth profiling, strain panel (AID 1159580);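 also: tested at 20 µM; growth read once vehicle control cultures reached saturation at 30 °C; 1 = growth at the plate median or of vehicle wells; lower values mean less growth of the strain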
- runConditions: S. cerevisiae deletion strains, growth OD, locus YMR307W, strain GAS1, hits give low values
The campaign covered roughly 5,500 compounds. About 2,000 (36%) were called active. Inconclusive results (about 18%) are left out. The list shows a part of the results.
Reported values of normalized growth for individual entries
experimentalEndpoint: normalized growth

1. COc1ccc(C(=O)CC(=O)c2ccc(C(C)(C)C)cc2)cc1 : 0.746
2. O=C(O)c1ccccc1C(=O)Nc1ccc(S(=O)(=O)Nc2nccs2)cc1 : 0.973
3. Cn1nccc1NS(=O)(=O)c1cccc(Cl)c1 : 0.957
4. N/C(=N/O)c1csc(-c2ccc(F)cc2F)n1 : 1.25
5. COC(=O)c1c(C)cc(OC(=O)c2c(C)c(Cl)c(O)c(C=O)c2O)c(C)c1O : 0.972
6. CC1CC2C3CC(F)C4=CC(=O)C=CC4(C)C3(F)C(O)CC2(C)C1C(=O)COC(=O)C(C)(C)C (configuration not stated) : 0.922
7. NC(Cc1ccc(F)cc1)C(=O)O (configuration not stated) : 1.05
8. CCN1CCC[C@H]1CNC(=O)c1c(OC)ccc(I)c1O : 1
9. CN(C)N=Nc1nc[nH]c1C(N)=O : 1.07
10. O=C(O)Cc1cc(I)c(Oc2cc(I)c(O)c(I)c2)c(I)c1 : 1.07
11. COc1ccc(OCC(N)=O)cc1 : 1.07
12. Cc1ccc(/C(N)=N\O)cc1F : 1.24

====

- protocolNotes: chemical genetic growth profiling, strain panel (AID 1159580);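 also: tested at 20 µM; growth read once vehicle control cultures reached saturation at 30 °C; 1 = growth at the plate median or of vehicle wells; lower values mean less growth of the strain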
- runConditions: S. cerevisiae deletion strains, growth OD, locus YOR001W, strain rrp6, hits give low values
The campaign covered roughly 5,500 compounds. About 2,000 (36%) were called active. Inconclusive results (about 18%) are left out. The list shows a part of the results.
Reported values of normalized growth for individual entries
experimentalEndpoint: normalized growth

1) CC(=O)Nc1nnc(S(N)(=O)=O)s1 : 1.02
2) CNCCCN1c2ccccc2CCc2ccccc21 : 1.02
3) CN[C@@H]1[C@H](OC2[C@H](O[C@H]3[C@H](O)[C@@H](O)[C@H](N=C(N)N)[C@@H](O)[C@@H]3N=C(N)N)O[C@@H](C)[C@]2(O)C=O)O[C@@H](CO)[C@H](O)[C@H]1O (stereo not given in full) : 1.04
4) CC1=C2[C@H]3OC(=O)[C@@H](C)[C@@H]3CC[C@@]2(C)C=CC1=O : 0.939
5) NC(Cc1ccc(F)cc1)C(=O)O (stereo not given) : 1.01
6) COc1cc([C@@H]2c3cc4c(cc3[C@H](OC(C)=O)[C@H]3COC(=O)[C@@H]23)OCO4)cc(OC)c1OC : 0.987
7) CO[C@]12C[C@@H](COC(=O)c3cncc(Br)c3)CN(C)[C@@H]1Cc1cn(C)c3cccc2c13 : 0.972
8) N[C@H](Cc1ccccc1)C(=O)O : 0.943
9) CC(CN(C)C)CN1c2ccccc2CCc2ccccc21 (stereo not given) : 0.979
10) CC(=O)N=c1sc(S(N)(=O)=O)nn1C : 1.01
